readoutKind: melting point

Before answering, review these 2 worked examples.
cpdSmiles	melting point
CC(=O)N[C@@H](CSC1=CC(=O)c2c(O)ccc(O)c2C1=O)C(=O)O	238.2 to 239.9 °C
CC(=O)N[C@@H](CSC1=CC(=O)c2c(O)cccc2C1=O)C(=O)O	209.8 to 211.7 °C

# query: melting point of entry CC(=O)N[C@@H](CSC1=C(C)C(=O)c2ccccc2C1=O)C(=O)O 206.9 to 208.3 °C

For the compound shown here, CC(=O)N[C@@H](CSC1=C(C)C(=O)c2cccc(O)c2C1=O)C(=O)O , give the reported melting point. > 193 °C (dec.)

Just for reference, paper PMC9457610 is where these values come from.
